Cited source: patent US20040023972A1

Molecular target: NO synthase (Rattus norvegicus)
Construct: the supernatant was then removed by decantation and frozen in portions at −80° C; from tissue; host or cells: rat cerebellum, 20,000 g supernatant of homogenate
Test: HTS-NOS assay (NOS assay): conversion of radioactive arginine, cation-exchanger filter plate
Assay type: biochemical
Conditions: read-out: HTS-NOS assay: % inhibition (10 μM)
MEASURED PROPERTY: inhibition at 10 µM (%)
Express it in %; write the number only.

The reported inhibition at 10 µM of the molecule CCCCN(C(C)=O)c1c(-c2ccccc2OC)nc2ccccn12 [Example 237] was 55

The molecule COC(=O)CN(C(C)=O)c1c(-c2ccccc2C)nc2ncccn12 [Example 285] showed inhibition at 10 µM equal to 51

Short answer for CC(=O)N(c1c(-c2ccc(C)o2)nc2ccccn12)C(C)(C)CC(C)(C)C [Example 200] : inhibition at 10 µM was 58

Lookup result for CC(=O)N(c1c(C)cccc1C)c1c(-c2cccc(O)c2)nc2cc(C)cc(C)n12 [Example 211] ; measured inhibition at 10 µM: 73

Please fill in: inhibition at 10 µM reported for Cc1cc(C)n2c(NC3CCCCC3)c(C)nc2c1 [Example 35] = 55
